studyTarget: recombinant human Meningioma Expressed Antigen 5 (MGEA5), also referred to as O-GlcNAcase (OGA) (Homo sapiens)
Construct: Full length OGA enzyme was purchased at OriGene (cat #TP322411); purchased OriGene TP322411
assayName: OGA biochemical assay (inhibition of FM-GlcNAc hydrolysis, fluorescence)
measurementContext: FM-GlcNAc substrate, 6 h at room temperature, read-out: Enzymatic hOGA, pIC50 (converted)
reportedProperty: IC50

>>> df
                                   molecule  endpointresult
0  COc1cc(C[C@H]2CCN([C@H](C)c3cc4c(cc3F)NCCO4)C2)cc(C)n1 (racemic) [Product 81]        0.794 µM
1  COc1cc(C[C@H]2CCN(C(C)c3ccc4c(n3)OCCC4)C2)cc(C)n1 (single isomer, unassigned) [Product 88]         > 10 µM
2  Cc1cc(O[C@@H]2CCN(C(C)c3nc4c(cc3F)CCO4)C2)cc(C)n1 (single isomer, unassigned) [Product 18]        0.158 µM
3  Cc1ncc(O[C@@H]2CCN(C(C)c3nc4c(cc3F)OCCO4)C2)nc1C (stereo partly shown) [Product 126]          0.1 µM

----------
Quick reference: log10 IC50 of the listed items.
studyTarget: recombinant human Meningioma Expressed Antigen 5 (MGEA5), also referred to as O-GlcNAcase (OGA) (Homo sapiens, UniProt O60502)
Construct: Full length OGA enzyme was purchased at OriGene (cat #TP322411); purchased OriGene TP322411
assayName: OGA biochemical assay (inhibition of FM-GlcNAc hydrolysis, fluorescence)
measurementContext: FM-GlcNAc substrate, 6 h at room temperature, read-out: Enzymatic hOGA, pIC50 (converted)
reportedProperty: log10 IC50 (log10 of the value in nM)

>>> print(df.to_string())
                                   molecule  endpointresult
0  Cc1cc(OC[C@]2(C)CCN([C@H](C)c3ccc4c(n3)OCCO4)C2)cc(C)n1 (single isomer, unassigned) [Product 100]            3.30
1  Cc1cnc(C[C@H]2CCN(C(C)c3cc4c(cc3F)OCCO4)C2)c(C)n1 (single isomer, unassigned) [Product 98]            1.50
2  COc1cc(CC2(C)CCN(C(C)c3ccc4c(n3)OCCO4)C2)cc(C)n1 (mixture of isomers) [Product 91]            2.20
3  Cc1cc(C[C@H]2CCN(C(C)c3ccc4c(c3)OCCN4C)C2)cc(C)n1 (stereo partly shown)            3.30
4  COc1cc(C[C@@H]2CCN([C@H](C)c3ccc4c(n3)OCCO4)C2)cc(C)n1 (single isomer, unassigned) [Product 107]            3.10
5  Cc1cc(CO[C@@H]2CCN(C(C)c3ccc4c(n3)OCCO4)C2)cc(C)n1 (mixture of isomers)            2.80

----------
studyTarget: recombinant human Meningioma Expressed Antigen 5 (MGEA5), also referred to as O-GlcNAcase (OGA) (Homo sapiens, UniProt O60502)
Construct: Full length OGA enzyme was purchased at OriGene (cat #TP322411); purchased OriGene TP322411
assayName: OGA biochemical assay (inhibition of FM-GlcNAc hydrolysis, fluorescence)
measurementContext: FM-GlcNAc substrate, maximal effect, read-out: Enzymatic Emax (%)
Quick reference: Emax of the listed items.
reportedProperty: Emax (%)

                                    compound  quantityunit  endpointresult
 0  COc1cc(C[C@H]2CCN([C@@H](C)c3cc4c(cc3F)NCCO4)C2)cc(C)n1 (racemic)             %             101
 1  Cc1cc(C[C@H]2CCN([C@H](C)c3ccc4c(c3)OCC4)C2)cc(C)n1 (single isomer, unassigned)             %              91
 2  Cc1cc(O[C@@H]2CCN(C(C)c3nc4c(cc3F)OCCO4)C2)nc(C)n1 (stereo partly drawn)             %              95
 3  Cc1cc(C[C@@H]2CCN(C(C)c3nc4c(cc3F)OCCO4)C2)cc(C)n1 (single isomer, unassigned) [Product 51]             %              96
 4  Cc1cc(OC[C@H]2CCN(C(C)c3nc4c(cc3F)OCCO4)C2)cc(C)n1 (mixture of isomers)             %             100
 5  CC(c1ccc2c(n1)OCCO2)N1CC[C@H](Cc2ncc(F)cc2F)C1 (single isomer, unassigned) [Product 23]             %              97
 6  Cc1cc(C[C@@H]2CCN(C(C)c3ccc4c(n3)OCCO4)C2)nc(C)n1 (stereo partly drawn)             %              96
 7  Cc1cc(C[C@H]2CCN([C@@H](C)c3ccc4c(c3)OCC4)C2)cc(C)n1 (single isomer, unassigned)             %             103
 8  COc1cc(C[C@H]2CCN(C(C)c3cnc4c(c3)OCCN4)C2)cc(C)n1 (stereo partly drawn)             %             101
 9  COc1cc(C[C@]2(C)CCN([C@@H](C)c3ccc4c(n3)OCCO4)C2)cc(C)n1 (single isomer, unassigned)             %              55
10  Cc1cc(C[C@@H]2CCN(C(C)c3cnc4c(c3)OCCN4)C2)cc(C)n1 (mixture of isomers)             %             100
11  COc1cc(C[C@H]2CCN(C(C)c3cc4c(cc3F)OCCO4)C2)cc(C)n1 (single isomer, unassigned)             %              88
12  CC(c1ccc2c(n1)OCCO2)N1CC[C@H](Cc2ncc(F)cc2F)C1 (stereo partly drawn) [Product 21]             %              94
13  COc1cc(C[C@H]2CCN(C(C)c3ccc4c(c3)OCC4)C2)cc(C)n1 (stereo partly drawn)             %             101
14  Cc1cc(OC[C@@H]2CCN(C(C)c3ccc4c(n3)OCCO4)C2)cc(C)n1 (stereo partly drawn)             %              97

----------
Quick reference: Cellular Emax (%) of the listed items.
studyTarget: OGA (Homo sapiens)
Construct: endogenous in cells; host or cells: HEK293 cells inducible for P301L mutant human Tau (isoform 2N4R)
assayName: OGA cellular assay (ICC detection of O-GlcNAcylated proteins in HEK293 cells inducible for P301L mutant human Tau)
Type: cell-based
measurementContext: HEK293 cells inducible for P301L mutant human Tau; maximum defined by Thiamet G at 200 uM
reportedProperty: Cellular Emax (%)

>>> print(df.to_string())
                                    compound  endpointresult
 0  Cc1cc(O[C@@H]2CCN(C(C)c3nc4c(cc3F)OCCO4)C2)cc(C)n1 (single isomer, unassigned) [Product 41]             −13
 1  Cc1cc(OC[C@]2(C)CCN([C@H](C)c3ccc4c(n3)OCCO4)C2)cc(C)n1 (single isomer, unassigned) [Product 101]              −4
 2  COc1cc(C[C@H]2CCN(C(C)c3cc4c(cc3F)OCCO4)C2)cc(C)n1 (single isomer, unassigned) [Product 11]              83
 3  Cc1cc(C[C@@H]2CCN([C@H](C)c3ccc4c(n3)OCCO4)C2)cc(C)n1 (single isomer, unassigned) [Product 105]               6
 4  Cc1cc(C[C@@H]2CCN(C(C)c3cnc4c(c3)OCCO4)C2)cc(C)n1 (single isomer, unassigned) [Product 36]              15
 5  Cc1cc(C[C@@H]2CCN(C(C)c3nc4c(cc3F)OCCO4)C2)cc(C)n1 (single isomer, unassigned) [Product 51]               8
 6  Cc1cc(C[C@@H]2CCN(C(C)c3nc4c(cc3F)OCCO4)C2)cc(C)n1 (single isomer, unassigned) [Product 52]              80
 7  Cc1cc(OC[C@]2(C)CCN([C@H](C)c3ccc4c(n3)OCCO4)C2)cc(C)n1 (single isomer, unassigned) [Product 103]              −5
 8  Cc1cc(O[C@H]2CCN(C(C)c3ccc4c(n3)OCCO4)C2)cc(C)n1 (single isomer, unassigned) [Product 71]               9
 9  Cc1cc(C[C@H]2CN(C(C)c3ccc4c(n3)OCCO4)C[C@@H]2C)cc(C)n1 (mixture of isomers)              56
10  Cc1cc(CC2(C)CCN(C(C)c3ccc4c(n3)OCCO4)C2)cc(C)n1 (centres unmarked)              34
11  Cc1cc(O[C@@H]2CCN(C(C)c3nc4c(cc3F)CCO4)C2)cc(C)n1 (single isomer, unassigned) [Product 18]              42
12  COc1cc(C[C@H]2CCN(C(C)c3cc4c(cc3F)OCCO4)C2)cc(C)n1 (single isomer, unassigned) [Product 10]              −5
13  COc1cc(C[C@@H]2CCN([C@H](C)c3ccc4c(n3)OCCO4)C2)cc(C)n1 (single isomer, unassigned) [Product 107]              −6
14  Cc1cc(O[C@@H]2CCN(C(C)c3nc4c(cc3F)OCCO4)C2)cc(C)n1 (single isomer, unassigned) [Product 40]              84
15  Cc1cc(O[C@@H]2CCN(C(C)c3ccc4c(n3)OCCO4)C2)cc(C)n1 (single isomer, unassigned) [Product 75]              34
16  Cc1cc(O[C@@H]2CCN(C(C)c3nc4c(cc3F)CCO4)C2)cc(C)n1 (single isomer, unassigned) [Product 19]              94
17  Cc1cc(O[C@@H]2CCN(C(C)c3nc4c(cc3F)OCCO4)C2)cc(C)n1 (some centres unmarked) [Product 39]              74
18  CC(c1ccc2c(n1)OCCO2)N1CC[C@@H](Oc2ccc(C#N)nn2)C1 (single isomer, unassigned) [Product 55]              24
19  Cc1cc(C[C@@H]2CCN(C(C)c3cnc4c(c3)OCCO4)C2)cc(C)n1 (single isomer, unassigned) [Product 35]              −6
20  Cc1cc(O[C@H]2CCN(C(C)c3ccc4c(n3)OCCO4)C2)cc(C)n1 (single isomer, unassigned) [Product 72]              −8
21  CC(c1ccc2c(n1)OCCO2)N1CC[C@@H](Oc2ccc(C#N)nn2)C1 (single isomer, unassigned) [Product 54]               2
22  COc1cc(C[C@@H]2CCN([C@H](C)c3ccc4c(n3)OCCO4)C2)cc(C)n1 (single isomer, unassigned) [Product 106]              47
